Reported pIC50 is given for each of the following molecules.
biological target: HDAC6 (Homo sapiens, UniProt Q9UBN7); assay: In vitro histone deacetylase assay: enzymatic HDAC6 electrophoretic mobility shift assay; conditions: full length human recombinant HDAC6, 1 nM enzyme, 2 μM peptide substrate RHKK(Ac)-NH2, 25° C.; read-out: Inhibitory Concentration (IC50) Values for Representative Compounds against HDAC6, Activity Range
pIC50: −log10 of the molar value.

Use these answered entries as a reference point.
- smilesStructure: "O=C(NO)c1ccc2c(c1)OCCN(C(=O)N1Cc3ccccc3C1)C2"
  pIC50: "≥ 7.00"
- smilesStructure: "O=C(NO)c1ccc2c(c1)OCCNC2"
  pIC50: "6.30 to 7.00"

So the reported pIC50 for "O=C1CN(Cc2cccc3ccccc23)Cc2cc(C(=O)NO)ccc2N1" , on HDAC6 (Homo sapiens, UniProt Q9UBN7), turned out to be ≥ 7.00

So the reported pIC50 for "C[C@@H]1CNCc2ccc(C(=O)NO)cc2O1" , on HDAC6 (Homo sapiens, UniProt Q9UBN7), turned out to be < 6.30

So the reported pIC50 for "O=C(NO)c1ccc2c(c1)OCCN(c1nc3ccccc3s1)C2" , on HDAC6 (Homo sapiens, UniProt Q9UBN7), turned out to be 6.30 to 7.00

So the reported pIC50 for "C[C@H]1COc2cc(C(=O)NO)ccc2CN1C(=O)OC1CCCCC1" , on HDAC6 (Homo sapiens, UniProt Q9UBN7), turned out to be ≥ 7.00

So the reported pIC50 for "O=C(NO)c1ccc2c(c1)OCCN(c1ccccc1)C2" , on HDAC6 (Homo sapiens, UniProt Q9UBN7), turned out to be < 6.30

So the reported pIC50 for "COC[C@H]1CN(C(=O)Nc2ccc(OC)cc2)Cc2ccc(C(=O)NO)cc2O1" , on HDAC6 (Homo sapiens, UniProt Q9UBN7), turned out to be 6.30 to 7.00

So the reported pIC50 for "COC[C@@H]1COc2cc(C(=O)NO)ccc2CN1Cc1ccc(OC)cc1" , on HDAC6 (Homo sapiens, UniProt Q9UBN7), turned out to be ≥ 7.00

So the reported pIC50 for "O=C1CN(Cc2ccc(-c3nccs3)cc2)Cc2cc(C(=O)NO)ccc2N1" , on HDAC6 (Homo sapiens, UniProt Q9UBN7), turned out to be ≥ 7.00

So the reported pIC50 for "COc1ccc(OC(=O)N2CCOc3cc(C(=O)NO)ccc3C2)cc1" , on HDAC6 (Homo sapiens, UniProt Q9UBN7), turned out to be ≥ 7.00

====

Reported IC50 is given for each of the following compounds.
Biological target: HDAC6 (Homo sapiens, UniProt Q9UBN7)
Sequence (Q9UBN7 1-1215): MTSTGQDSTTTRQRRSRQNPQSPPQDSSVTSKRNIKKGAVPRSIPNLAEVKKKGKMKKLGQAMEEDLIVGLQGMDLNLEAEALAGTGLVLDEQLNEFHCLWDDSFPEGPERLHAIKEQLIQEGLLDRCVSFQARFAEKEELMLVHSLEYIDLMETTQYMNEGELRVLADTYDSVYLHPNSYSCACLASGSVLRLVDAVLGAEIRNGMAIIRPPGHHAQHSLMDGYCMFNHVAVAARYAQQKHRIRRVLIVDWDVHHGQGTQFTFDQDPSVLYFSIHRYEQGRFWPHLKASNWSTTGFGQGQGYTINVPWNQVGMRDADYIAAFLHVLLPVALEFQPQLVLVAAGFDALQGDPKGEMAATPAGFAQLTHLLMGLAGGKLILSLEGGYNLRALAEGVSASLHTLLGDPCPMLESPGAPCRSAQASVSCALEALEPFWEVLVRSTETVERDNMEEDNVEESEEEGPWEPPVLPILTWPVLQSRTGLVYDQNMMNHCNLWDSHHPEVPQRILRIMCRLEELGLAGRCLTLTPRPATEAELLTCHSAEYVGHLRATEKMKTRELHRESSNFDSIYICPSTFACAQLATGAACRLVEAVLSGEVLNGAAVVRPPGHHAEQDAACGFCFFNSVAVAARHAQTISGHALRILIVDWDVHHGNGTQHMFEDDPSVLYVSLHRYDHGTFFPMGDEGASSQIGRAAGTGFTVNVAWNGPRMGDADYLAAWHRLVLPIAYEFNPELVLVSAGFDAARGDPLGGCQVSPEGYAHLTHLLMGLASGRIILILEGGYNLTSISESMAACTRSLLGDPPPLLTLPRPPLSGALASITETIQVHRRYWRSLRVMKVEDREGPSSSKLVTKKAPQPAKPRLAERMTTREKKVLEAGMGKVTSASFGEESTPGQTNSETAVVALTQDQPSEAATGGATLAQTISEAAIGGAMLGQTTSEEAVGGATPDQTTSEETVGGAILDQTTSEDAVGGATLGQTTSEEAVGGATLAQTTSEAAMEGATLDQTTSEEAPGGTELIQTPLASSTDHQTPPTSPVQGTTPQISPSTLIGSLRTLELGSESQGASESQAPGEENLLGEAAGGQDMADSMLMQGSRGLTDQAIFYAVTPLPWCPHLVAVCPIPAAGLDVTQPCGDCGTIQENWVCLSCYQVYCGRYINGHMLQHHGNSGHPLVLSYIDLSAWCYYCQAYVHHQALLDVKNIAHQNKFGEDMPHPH
Test: In vitro histone deacetylase assay: enzymatic HDAC6 electrophoretic mobility shift assay
Conditions: full length human recombinant HDAC6, 1 nM enzyme, 2 μM peptide substrate RHKK(Ac)-NH2, 25° C.; read-out: Inhibitory Concentration (IC50) Values for Representative Compounds against HDAC6, Activity Range
Method: The enzymatic HDAC6 assay was performed using electrophoretic mobility shift assay. […] The terminated assay plates were analyzed on LabChip® 3000 microfluidic electrophoresis instrument (Perkin Elmer/Caliper Life Sciences). The fluorescence intensity of the electrophoretically separated de-acetylated product and substrate peptide was measured. […] Percent inhibition (Pinh) is determined using the following equation: […]

Use these answered entries as a reference point.
- compound: "CC1CCCCN1C(=O)N1Cc2ccc(C(=O)NO)cc2OC[C@@H]1C (some centres unmarked)"
  IC50: "≤ 100 nM"
- compound: "COc1ccc(NC(=O)N2Cc3ccc(C(=O)NO)cc3OC[C@H]2C)cc1"
  IC50: "100 to 500 nM"
- compound: "COc1ccc(NC(=O)N2CCOc3cc(C(=O)NO)ccc3C2)cc1"
  IC50: "100 to 500 nM"
- compound: "COC[C@H]1COc2cc(C(=O)NO)ccc2CN1c1ccccc1"
  IC50: "≤ 100 nM"
- compound: "C[C@H]1COc2cc(C(=O)NO)ccc2CN1CC1CCCO1 (some centres unmarked)"
  IC50: "≤ 100 nM"
- compound: "O=C1CN(Cc2nccs2)Cc2cc(C(=O)NO)ccc2N1"
  IC50: "> 500 nM"
- compound: "CC(C)CN1Cc2ccc(C(=O)NO)cc2OC[C@@H]1C"
  IC50: "≤ 100 nM"
- compound: "C[C@H]1COc2cc(C(=O)NO)ccc2CN1C(=O)N1C[C@@H]2CC[C@@H](C1)O2"
  IC50: "≤ 100 nM"

// sample CC(c1ccccc1)N1CC(=O)Nc2ccc(C(=O)NO)cc2C1 (centres unmarked) , its IC50 was ≤ 100 nM

// sample "O=C1CN(Cc2ccnc(N3CCOCC3)c2)Cc2cc(C(=O)NO)ccc2N1" , its IC50 was 100 to 500 nM

// sample O=C1CN(CC2CCOC2)Cc2cc(C(=O)NO)ccc2N1 (centres unmarked) , its IC50 was > 500 nM

====

target: HDAC6 (Homo sapiens, UniProt Q9UBN7); test: In vitro histone deacetylase assay: enzymatic HDAC6 electrophoretic mobility shift assay; settings: full length human recombinant HDAC6, 1 nM enzyme, 2 μM peptide substrate RHKK(Ac)-NH2, 25° C.; read-out: Inhibitory Concentration (IC50) Values for Representative Compounds against HDAC6, Activity Range
pIC50: −log10 of the molar value.
reportedProperty: pIC50

- smilesStructure: "COc1ccc(CCN2CCOc3cc(C(=O)NO)ccc3C2)cc1"
  pIC50: "6.30 to 7.00"
- smilesStructure: "O=C1CN(Cc2cc(F)cc(F)c2)Cc2cc(C(=O)NO)ccc2N1"
  pIC50: "6.30 to 7.00"
- smilesStructure: "O=C(NO)c1ccc2c(c1)S(=O)(=O)N(Cc1ccccc1)CCO2"
  pIC50: "6.30 to 7.00"
- smilesStructure: "C[C@H]1COc2cc(C(=O)NO)ccc2CN1CC1CCCC1"
  pIC50: "≥ 7.00"
- smilesStructure: "C[C@H]1COc2cc(C(=O)NO)ccc2CN1CCCN1CCOCC1"
  pIC50: "6.30 to 7.00"
- smilesStructure: "COCCn1c(CN2CCOc3ccc(C(=O)NO)cc3C2)nc2ccccc21"
  pIC50: "< 6.30"
- smilesStructure: "O=C(NO)c1ccc2c(c1)OCCN(c1nc3ccccc3n1CC1CCOCC1)C2"
  pIC50: "6.30 to 7.00"
- smilesStructure: "CN1Cc2ccc(C(=O)NO)cc2OCC12CC2"
  pIC50: "≥ 7.00"
- smilesStructure: "C[C@H]1COc2cc(C(=O)NO)ccc2CN1C(=O)OC1CCCC1"
  pIC50: "≥ 7.00"
- smilesStructure: "COc1ccc(CN2CC(=O)Nc3ccc(C(=O)NO)cc3C2)cc1"
  pIC50: "6.30 to 7.00"

Now look at this entry.
So the reported pIC50 for "CN1Cc2ccc(C(=O)NO)cc2OCC1(C)C" , on HDAC6 (Homo sapiens, UniProt Q9UBN7), turned out to be ≥ 7.00
